assay: Solubility in water; format: physicochemical
endpoint.label: solubility

For record CC(C)(C)c1cc(C(C)(C)C)c(NC(=O)c2c[nH]c3ccccc3c2=O)cc1O [Compound B] the listed solubility is < 0.05 µg/mL

---

biological target: ΔF508-CFTR (Homo sapiens (Human), UniProt P13569, DEL508-508); test: Membrane potential optical assay, identification of correction compounds; type: cell-based; settings: read-out: EC50
Sequence (P13569 other isoform, or with tags, fused parts or gaps del F508-F508): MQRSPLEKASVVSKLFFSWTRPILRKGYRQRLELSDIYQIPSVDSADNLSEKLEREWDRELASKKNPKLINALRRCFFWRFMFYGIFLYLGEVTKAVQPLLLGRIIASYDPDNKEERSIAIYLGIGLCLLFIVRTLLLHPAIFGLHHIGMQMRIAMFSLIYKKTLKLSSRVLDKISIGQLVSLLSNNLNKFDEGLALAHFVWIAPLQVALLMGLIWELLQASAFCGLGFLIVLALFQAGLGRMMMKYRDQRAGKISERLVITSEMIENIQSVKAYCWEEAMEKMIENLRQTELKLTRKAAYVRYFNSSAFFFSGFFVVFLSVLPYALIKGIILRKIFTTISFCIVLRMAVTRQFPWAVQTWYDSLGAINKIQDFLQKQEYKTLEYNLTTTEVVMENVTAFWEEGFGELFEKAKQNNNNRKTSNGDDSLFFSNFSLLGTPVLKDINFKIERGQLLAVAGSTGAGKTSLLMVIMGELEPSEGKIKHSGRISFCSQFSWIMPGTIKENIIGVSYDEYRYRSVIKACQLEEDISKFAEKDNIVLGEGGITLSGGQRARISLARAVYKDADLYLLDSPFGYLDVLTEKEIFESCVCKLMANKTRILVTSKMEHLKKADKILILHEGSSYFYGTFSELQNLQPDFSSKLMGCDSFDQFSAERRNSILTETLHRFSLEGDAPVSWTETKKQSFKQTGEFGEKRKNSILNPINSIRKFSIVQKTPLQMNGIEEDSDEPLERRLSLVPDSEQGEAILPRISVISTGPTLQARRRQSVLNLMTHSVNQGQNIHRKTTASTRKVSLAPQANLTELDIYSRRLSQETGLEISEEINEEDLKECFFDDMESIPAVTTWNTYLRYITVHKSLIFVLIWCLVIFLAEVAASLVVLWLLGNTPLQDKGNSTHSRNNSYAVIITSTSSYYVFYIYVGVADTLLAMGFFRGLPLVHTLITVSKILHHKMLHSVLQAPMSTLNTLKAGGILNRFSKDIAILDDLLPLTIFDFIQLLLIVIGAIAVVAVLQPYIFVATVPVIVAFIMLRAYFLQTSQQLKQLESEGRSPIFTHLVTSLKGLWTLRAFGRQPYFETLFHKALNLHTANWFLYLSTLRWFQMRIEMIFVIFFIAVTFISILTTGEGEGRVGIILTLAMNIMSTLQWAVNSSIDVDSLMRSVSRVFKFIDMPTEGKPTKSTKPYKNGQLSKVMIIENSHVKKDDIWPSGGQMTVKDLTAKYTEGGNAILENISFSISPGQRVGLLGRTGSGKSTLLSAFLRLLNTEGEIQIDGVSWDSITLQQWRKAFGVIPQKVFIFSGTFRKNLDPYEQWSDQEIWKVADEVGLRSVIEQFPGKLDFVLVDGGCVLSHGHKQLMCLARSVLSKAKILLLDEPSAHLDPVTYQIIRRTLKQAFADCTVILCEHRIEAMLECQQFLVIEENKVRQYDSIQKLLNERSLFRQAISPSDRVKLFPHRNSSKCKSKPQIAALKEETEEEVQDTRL
pEC50: −log10 of the molar value.
Classify by measured pEC50: Y if it is equal to or exceeds 7, N if it is smaller.

Solved entries:
CC(C)(CO)c1cc2cc(NC(=O)C3(c4ccc5c(c4)OC(F)(F)O5)CC3)c(F)cc2n1C[C@@H](O)CO [Compound 315] | N
CC1(C)CCn2c1cc1cc(NC(=O)C3(c4ccc5c(c4)OC(F)(F)O5)CC3)c(F)cc12 [Compound 314] | N
CC(C)(CO)c1cc2cc(NC(=O)C3(c4ccc5c(c4)OC(F)(F)O5)CC3)c(F)cc2[nH]1 [Compound 320] | N
COc1ccc(C2(C(=O)Nc3ccc4[nH]c(C(C)(C)C)cc4c3)CC2(C)C)cc1 (stereo not drawn) [Compound 317] | N
CC(C)(C)c1cc2cc(NC(=O)C3(c4ccc(O)c(O)c4)CC3)ccc2n1C[C@@H](O)CO [Compound 321] | N

Query :: Hello, I need to know if CC(C)(C)c1cc2c(C#N)c(NC(=O)C3(c4ccc5c(c4)OC(F)(F)O5)CC3)ccc2[nH]1 [Compound 313] has measured pEC50 not below 7. Thanks!
Result :: N

Query :: Hello, I need to know if CC(C)(CCOC[C@@H](O)CO)c1cc2cc(NC(=O)C3(c4ccc5c(c4)OC(F)(F)O5)CC3)c(F)cc2n1C[C@@H](O)CO [Compound 308] has measured pEC50 not below 7. Thanks!
Result :: N

Query :: Hello, I need to know if CC(C)(C)c1cc2c(C#N)c(NC(=O)C3(c4ccc5c(c4)OC(F)(F)O5)CC3)ccc2n1CCO [Compound 312] has measured pEC50 not below 7. Thanks!
Result :: N

Query :: Hello, I need to know if CC(C)(C)c1cc2cc(NC(=O)C3(c4ccc5c(c4)CCC5)CC3)ccc2n1C[C@@H](O)CO [Compound 307] has measured pEC50 not below 7. Thanks!
Result :: N

Query :: Hello, I need to know if CN(C)CCn1c(C(C)(C)C)cc2cc(NC(=O)C3(c4ccc5c(c4)OC(F)(F)O5)CC3)c(F)cc21 [Compound 309] has measured pEC50 not below 7. Thanks!
Result :: Y

Query :: Hello, I need to know if CC(C)(CCOC[C@@H](O)CO)c1cc2cc(NC(=O)C3(c4ccc5c(c4)OC(F)(F)O5)CC3)c(F)cc2[nH]1 [Compound 316] has measured pEC50 not below 7. Thanks!
Result :: N

Query :: Hello, I need to know if COc1ccc(C2(C(=O)Nc3ccc4c(c3)cc(C(C)(C)C)n4C[C@@H](O)CO)CC2(C)C)cc1 (stereo partly drawn) [Compound 319] has measured pEC50 not below 7. Thanks!
Result :: Y

Values were extracted from patent US10022352B2.
